Taken from patent US6355799B1.

Test system: johnsongrass (Sorghum halepense, SORHA)
Assay: Post-emerge test, greenhouse herbicide activity screening
Type: in vivo
Conditions: Rate 63 g ai/ha; rating scale 0-100 (0 no damage, 100 complete death); 14 days after application
REPORTED PROPERTY: Post-emerge Herbicidal Activity, phytotoxicity rating SORHA

{"columns": ["COMPOUND", "READOUT NUMBER"],
 "data": [
  ["CCCCCOC(=O)C(Cl)Cc1c(OC)c(Cl)cc(F)c1-n1c(=O)cc(C(F)(F)F)n(C)c1=O (single isomer, unassigned)", 50],
  ["CCOC(=O)C(Cl)Cc1cc(Cl)cc(F)c1-n1nc(C)n(C(F)F)c1=O (centres unmarked)", 0],
  ["CCOCCOC(=O)C(Cl)Cc1c(OC)c(Cl)cc(F)c1-n1c(=O)cc(C(F)(F)F)n(C)c1=O (centres unmarked)", 30],
  ["CCCCCOC(=O)C(C)(Cl)Cc1c(OC)c(Cl)cc(F)c1-n1c(=O)cc(C(F)(F)F)n(C)c1=O (centres unmarked)", 0],
  ["COCCOC(=O)C(C)(Cl)Cc1c(OC)c(Cl)cc(F)c1-n1c(=O)cc(C(F)(F)F)n(C)c1=O (centres unmarked)", 70],
  ["COc1c(Cl)cc(F)c(-n2c(=O)cc(C(F)(F)F)n(C)c2=O)c1CC(C)(Cl)C(=O)OC(C)C (centres unmarked)", 30],
  ["COc1c(Cl)cc(F)c(-n2c(=O)cc(C(F)(F)F)n(C)c2=O)c1CC(C)(Cl)C(=O)OCC(C)C (centres unmarked)", 20],
  ["C=COC(=O)C(C)(Cl)Cc1c(OC)c(Cl)cc(F)c1-n1c(=O)cc(C(F)(F)F)n(C)c1=O (centres unmarked)", 60]
]}

----------
System: ivyleaf morningglory (Ipomoea hederacea, IPOHE)
Test: Post-emerge test, greenhouse herbicide activity screening
Assay type: in vivo
Conditions: post-emerge, 63 g ai/ha, phytotoxicity rating 0-100 at 14 days after application
Form field: Post-emerge Herbicidal Activity IPOHE (one value per entry).

{"columns": ["COMPOUND", "Post-emerge Herbicidal Activity IPOHE"],
 "data": [
  ["O=C(Nc1cc(Cl)ccc1-n1c(=O)n2n(c1=O)CCCC2)c1ccc2ccccc2c1", 75],
  ["COc1c(Cl)cc(F)c(N2C(=O)c3ccccc3C2=O)c1NC(=O)c1ccc(F)cc1F", 85],
  ["Cc1cccc(COC(=O)Nc2c(C)c(Cl)cc(F)c2-n2c(=O)cc(C(F)(F)F)n(C)c2=O)c1", 100],
  ["COc1ccccc1COC(=O)Nc1c(C)c(Cl)cc(F)c1-n1c(=O)cc(C(F)(F)F)n(C)c1=O", 100],
  ["Cc1nn(-c2c(Cl)cc(Cl)cc2NC(=O)c2ccc(F)cc2F)c(=O)n1C(F)F", 50],
  ["COc1cccc(OC)c1OC(=O)Nc1c(C)c(Cl)cc(F)c1-n1c(=O)cc(C(F)(F)F)n(C)c1=O", 100],
  ["COc1c(Cl)cc(F)c(N2C(=O)C3CCCCN3C2=S)c1NC(=O)c1ccc2ccccc2c1 (stereo not shown)", 100],
  ["CC(C)Oc1c(Cl)cc(F)c(N2C(=O)C3=C(CCCC3)C2=O)c1NC(=O)c1ccc(F)cc1F", 50],
  ["C=Cc1ccc(C(=O)Nc2c(OC)c(Cl)cc(F)c2N2C(=O)C3=C(CCCC3)C2=O)cc1", 100],
  ["Cc1c(Cl)cc(F)c(-n2c(=O)cc(C(F)(F)F)n(C)c2=O)c1NC(=O)OCc1ccc(Cl)cc1Cl", 100]
]}
